Target: T1, oligopeptide ATYPSGHLDM (SEQ ID NO: 1) (human and mouse)
T1 construct: Synthetic peptide; positions 148 to 157 of the human AQP3 polypeptide, identical in mouse; also called peptide used for immunization; oligopeptide 5
T1 peptide: ATYPSGHLDM
Test: ELISA on peptide, Fab
MEASUREMENT KIND: binding result

Some binders with recorded binding result:
* SC-F6 (Fab) (Fab, V domains shown) VH: QSVKESGGRLVTPGAPLTLTCTVSRFSLSSYAMTWVRQAPGKGLEWIGIINNDGISSTWYASWVKGRFTISKTSTTMDLKMTSLTTEDTATYFCARGGTSGYDIWGPGTLVTVSL VL: AQGMTQTPASVSAAVGGTVTINCQSSPSVYKNYLSWYQQKSGQPPKLLIYGASTLASGVPSRFKGSGSGTQFTLTISDVQCDDAATYYCAGGYRGSSDIFAFGGGTEVVVK | binds
* SC-C7 (Fab) (Fab, V domains shown) VH: QTVKESGGRLVTPGAPLTLTCTVSRFSLSGYAMTWVRQAPGKGLEWIGIINNDISGSTWYASWVKGRFTISKTSTTMDLKMTSLTTEDTATYFCARGGTSGYDIWGPGTLVTVSS VL: DVVMTQTPSPVSAAVGGTVTINCQSSPSVYKNYLSWYQQKPGQPPKLLIYGASTLASGVPSRFKGSGSGTQFTLTISDVQCDDAATYYCAGGYRGSSDIFAFGGGTEVVVK | binds
* SC-D1 (Fab) (Fab, V domains shown) VH: QSLEESRGRLVTPGGSLTLTCTVSGFSLSSYAMTWVRQAPGKGLEWIGIINNDGVSSTWYASWVKGRFTISKTSTTMDLKMTSLTTEDTATYFCARGGTSGYDIWGPGTLVTVSL VL: DPMMTQTPSPVSAAVGGTVTINCQSSPSVYKNYLSWYQQKPGQPPKLLIYGASTLASGVPSRFKGSGSGTQFTLTISGVQCDDAATYYCAGGYRGSSDIFAFGGGTEVVVK | binds
* SC-D10 (Fab) (Fab, V domains shown) VH: QSVKESGGRLVTPGGSLTLTCTVSRFSLSSYAMTWVRQAPGKGLEWIGIINNDGVSSTWYASWVKGRFTISKTSTTMDLKMTSLTTEDTATYFCARGGTSGYDIWGPGTLVTVSL VL: ALVMTQTPSPVSAAVGGTVTTNCQSSPSVYKNYLSWYQQKPGQPPKLLIYKASTLASGVPSRFSGSGSGTQFTLTISDVQCDDAATYYCAGGYRGSSDIFAFGGGTEVVVK | binds

Turning now to a further binder:
Give the measured binding result of BC-A3 (Fab) (Fab, V domains shown) VH: QTVKESGGRLVTPGAPLTLTCTVSRFSLSSYAMTWVRQAPGKGLEWIGIINNDGVSSTWYASWVKGRFTISKTSTTMDLKMTSLTTEDTATYFCARGGTSGYDIWGPGTLVTVSL VL: AQVLTQTPASVSAAVRGTVTINCQSSPSVYKNYLSWYQQKSGQPPKLLIYGASTLASGVPSRFKGSGSGTQFTLTISDVQCDDAATYYCAGGYRGSSDIFAFGGGTEVVVK .
binds
